- assay notes: in vitro
- Assay type: cell-based
- measurement setup: mouse
readout kind: CC50 (µM)
One number for each entry, in µM.

Short answer for N#CC(C(=O)Nc1cccc(C(F)(F)F)c1)C(=S)Nc1ccccc1Cl (stereo not shown) [MKV3] : CC50 was 63.1

----------
- assay notes: Cytotoxicity in B16 cells by MTT and crystal violet assays
- Assay type: cell-based
- measurement setup: mouse
readout kind: CC50

Short answer for N#CC(C(=O)Nc1cccc(C(F)(F)F)c1)C(=S)Nc1ccccc1Cl (stereo not shown) : CC50 was ~75 µM

----------
- target entity: ATP7A (Homo sapiens)
- Sequence (Q04656 whole entry): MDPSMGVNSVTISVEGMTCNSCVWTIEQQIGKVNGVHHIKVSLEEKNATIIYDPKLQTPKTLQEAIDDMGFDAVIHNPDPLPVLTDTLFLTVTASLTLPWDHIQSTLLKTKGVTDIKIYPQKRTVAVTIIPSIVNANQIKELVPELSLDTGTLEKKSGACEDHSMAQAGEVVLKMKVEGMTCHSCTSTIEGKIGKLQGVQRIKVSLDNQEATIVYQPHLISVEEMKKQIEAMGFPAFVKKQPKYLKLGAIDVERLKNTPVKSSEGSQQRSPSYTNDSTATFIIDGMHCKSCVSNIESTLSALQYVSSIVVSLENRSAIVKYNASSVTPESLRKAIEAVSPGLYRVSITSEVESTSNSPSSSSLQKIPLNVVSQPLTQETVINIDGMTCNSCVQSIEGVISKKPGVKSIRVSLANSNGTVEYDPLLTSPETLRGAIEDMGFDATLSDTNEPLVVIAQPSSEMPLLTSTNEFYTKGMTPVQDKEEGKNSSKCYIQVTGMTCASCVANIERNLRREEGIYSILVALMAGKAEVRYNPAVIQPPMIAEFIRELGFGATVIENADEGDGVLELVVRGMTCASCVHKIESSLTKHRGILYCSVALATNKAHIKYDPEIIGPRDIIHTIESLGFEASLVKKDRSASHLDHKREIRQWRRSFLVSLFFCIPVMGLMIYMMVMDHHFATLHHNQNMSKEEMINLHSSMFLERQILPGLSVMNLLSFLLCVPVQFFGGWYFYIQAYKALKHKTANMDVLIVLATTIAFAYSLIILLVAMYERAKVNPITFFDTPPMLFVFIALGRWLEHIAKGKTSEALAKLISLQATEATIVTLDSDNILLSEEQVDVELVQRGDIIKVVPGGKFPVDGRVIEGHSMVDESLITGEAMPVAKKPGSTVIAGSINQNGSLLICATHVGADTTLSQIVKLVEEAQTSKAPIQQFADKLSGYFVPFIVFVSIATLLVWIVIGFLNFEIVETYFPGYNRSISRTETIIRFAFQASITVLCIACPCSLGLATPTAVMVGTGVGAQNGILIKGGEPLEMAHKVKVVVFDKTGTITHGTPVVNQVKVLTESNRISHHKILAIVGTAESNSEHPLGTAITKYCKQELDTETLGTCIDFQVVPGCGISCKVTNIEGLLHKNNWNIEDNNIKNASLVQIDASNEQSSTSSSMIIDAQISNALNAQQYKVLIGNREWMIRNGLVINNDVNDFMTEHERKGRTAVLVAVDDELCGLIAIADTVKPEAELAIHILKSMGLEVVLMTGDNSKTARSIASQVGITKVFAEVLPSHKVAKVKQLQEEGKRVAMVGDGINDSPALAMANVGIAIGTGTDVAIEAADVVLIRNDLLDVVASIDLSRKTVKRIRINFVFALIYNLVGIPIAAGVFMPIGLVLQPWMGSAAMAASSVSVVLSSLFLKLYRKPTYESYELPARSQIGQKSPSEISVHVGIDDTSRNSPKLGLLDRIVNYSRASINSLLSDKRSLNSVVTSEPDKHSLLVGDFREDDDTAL
- assay notes: Microscale thermophoresis (MST) binding to GFP-ATP7A in HEK293 cell lysates
- measurement setup: MST analysis; read-out: ATP7A Binding Affinity KD
Please note: Kd exactly at 700 nM is Not met. Only values below 700 nM get Met.

molecule=O=C(CC(=S)Nc1ccccc1)Nc1cccc(C(F)(F)F)c1 target_entity="ATP7A (Homo sapiens)" class_label=Met

Consider O=C(CC(=S)Nc1ccccc1)Nc1ccccc1 . Does its Kd lie strictly below 700 nM?
Not met

Consider N#CC(C(=O)Nc1ccccc1)C(=S)Nc1ccccc1 (stereo not shown) . Does its Kd lie strictly below 700 nM?
Met

Consider O=C(CC(=S)Nc1ccccc1Cl)Nc1ccccc1 . Does its Kd lie strictly below 700 nM?
Met

Consider N#CC(C(=O)Nc1ccccc1)C(=S)Nc1ccccc1Cl (stereo not shown) . Does its Kd lie strictly below 700 nM?
Not met

Consider N#CC(C(=O)Nc1cccc(C(F)(F)F)c1)C(=S)Nc1ccccc1 (stereo not shown) . Does its Kd lie strictly below 700 nM?
Not met

meta.source: patent US20250017889A1
